Target: UniProt P11511
Sequence (P11511 whole entry): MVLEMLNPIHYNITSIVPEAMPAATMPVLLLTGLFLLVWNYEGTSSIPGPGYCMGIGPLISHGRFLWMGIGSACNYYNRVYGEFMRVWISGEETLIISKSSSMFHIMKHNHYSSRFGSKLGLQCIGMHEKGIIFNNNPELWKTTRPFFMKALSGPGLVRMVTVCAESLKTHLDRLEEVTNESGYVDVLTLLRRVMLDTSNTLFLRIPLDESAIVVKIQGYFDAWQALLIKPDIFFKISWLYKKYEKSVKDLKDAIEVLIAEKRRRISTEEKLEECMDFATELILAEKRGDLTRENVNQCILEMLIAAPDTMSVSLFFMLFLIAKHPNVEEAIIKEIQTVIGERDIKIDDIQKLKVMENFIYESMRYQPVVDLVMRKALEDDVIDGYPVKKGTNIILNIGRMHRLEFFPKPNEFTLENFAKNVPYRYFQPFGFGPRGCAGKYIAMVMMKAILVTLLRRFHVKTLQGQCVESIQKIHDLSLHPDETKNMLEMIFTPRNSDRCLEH
Assay: tritiated water-release aromatase assay in KGN cells after 24-h exposure
readout-type: IC50 (nM)
Answer with a number only, understood to be in nM.

Please give measured IC50 of the following entry: CC(C)=CCc1c(O)cc(O)c2c1O[C@H](c1ccc(O)cc1)CC2=O [8-PN, 8-prenylnaringenin]
8
